test system: biotinyl-Met-oxazolone; assay: self-aminoacylation, catalytic enhancement (BMO) (fold over background); higher = more active; k-Seq, kA / k0A0; sequences stand for … in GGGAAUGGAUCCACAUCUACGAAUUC…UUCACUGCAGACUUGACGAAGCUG
This sample holds only a part of the variants without activity.
Result Type: self-aminoacylation

Look up self-aminoacylation with biotinyl-Met-oxazolone for this sequence: AUUCCCCUAAGUCAUCGGGUG [Fam2.2 aminoacylation ribozyme variant]
59.1

Look up self-aminoacylation with biotinyl-Met-oxazolone for this sequence: AUUACUCCGGUCAUCGAGUGA [Fam2.1 aminoacylation ribozyme variant]
5.22

Look up self-aminoacylation with biotinyl-Met-oxazolone for this sequence: AAUUCUGCUAAUAGUCGCAAG [Fam3.1 aminoacylation ribozyme variant]
1.81

Look up self-aminoacylation with biotinyl-Met-oxazolone for this sequence: AUUCACCGAGGUCAUCGGAUG [Fam2.2 aminoacylation ribozyme variant]
1.07

Look up self-aminoacylation with biotinyl-Met-oxazolone for this sequence: CCAUACUUCCAGCAAUCGGUC [Fam1B.1 aminoacylation ribozyme variant]
1.06

Look up self-aminoacylation with biotinyl-Met-oxazolone for this sequence: ACACACUUCAAGCAAUCGUUC [Fam1B.1 aminoacylation ribozyme variant]
0.825

Look up self-aminoacylation with biotinyl-Met-oxazolone for this sequence: AAGGUUGCUCAUAGUCGCAAG [Fam3.1 aminoacylation ribozyme variant]
1.57

Look up self-aminoacylation with biotinyl-Met-oxazolone for this sequence: AUUCCCCUAGGUCAUCGAGUG [Fam2.2 aminoacylation ribozyme variant]
11

Look up self-aminoacylation with biotinyl-Met-oxazolone for this sequence: UUUACCCUGGUCUUCGAGUGA [Fam2.1 aminoacylation ribozyme variant]
3.61

Look up self-aminoacylation with biotinyl-Met-oxazolone for this sequence: CUACUUCACACAACCGGUCUG [Fam1A.1 aminoacylation ribozyme variant]
1.2

Look up self-aminoacylation with biotinyl-Met-oxazolone for this sequence: CUAAUACAAACAAUCGGUCUG [Fam1A.1 aminoacylation ribozyme variant]
0.674

Look up self-aminoacylation with biotinyl-Met-oxazolone for this sequence: UGGUUUGCUAAUAGUCGCAAG [Fam3.1 aminoacylation ribozyme variant]
1.88

Look up self-aminoacylation with biotinyl-Met-oxazolone for this sequence: CCACACUUCAAGCAAUCUGAC [Fam1B.1 aminoacylation ribozyme variant]
0.41

Look up self-aminoacylation with biotinyl-Met-oxazolone for this sequence: UCACACUUCAAGCAAUCGGAC [Fam1B.1 aminoacylation ribozyme variant]
0.732

Look up self-aminoacylation with biotinyl-Met-oxazolone for this sequence: AUUCACCUUGGUCAUCGGGAG [Fam2.2 aminoacylation ribozyme variant]
1.05

Look up self-aminoacylation with biotinyl-Met-oxazolone for this sequence: CUACUUCAAACAGUCGCUCUG [Fam1A.1 aminoacylation ribozyme variant]
1.45

Look up self-aminoacylation with biotinyl-Met-oxazolone for this sequence: AUAACCCUGGUCAUCCAGUGA [Fam2.1 aminoacylation ribozyme variant]
5.52

Look up self-aminoacylation with biotinyl-Met-oxazolone for this sequence: AAGUUUGCUGAUAGUCGCGAG [Fam3.1 aminoacylation ribozyme variant]
1.72

Look up self-aminoacylation with biotinyl-Met-oxazolone for this sequence: AUUACCCUGAUCCUCGAGUGA [Fam2.1 aminoacylation ribozyme variant]
3.7

Look up self-aminoacylation with biotinyl-Met-oxazolone for this sequence: AAGUUUACUAAUAGUCGCAAG [Fam3.1 aminoacylation ribozyme variant]
1.23

Look up self-aminoacylation with biotinyl-Met-oxazolone for this sequence: GUUACCCUGGUCAUCGAGUCA [Fam2.1 aminoacylation ribozyme variant]
1.26

Look up self-aminoacylation with biotinyl-Met-oxazolone for this sequence: AAGUUUGCUACUACUCGCAAG [Fam3.1 aminoacylation ribozyme variant]
0.647

Look up self-aminoacylation with biotinyl-Met-oxazolone for this sequence: AUUCACCGAGGUCGUCGGGUG [Fam2.2 aminoacylation ribozyme variant]
3.16

Look up self-aminoacylation with biotinyl-Met-oxazolone for this sequence: AUUCACCUUGGUCGUCGGGUG [Fam2.2 aminoacylation ribozyme variant]
1.86

Look up self-aminoacylation with biotinyl-Met-oxazolone for this sequence: AUUCACCUAGGUCAACGGGUA [Fam2.2 aminoacylation ribozyme variant]
1.12

Look up self-aminoacylation with biotinyl-Met-oxazolone for this sequence: AUUACCCAGGUCAUCGCGUGA [Fam2.1 aminoacylation ribozyme variant]
20.3

Look up self-aminoacylation with biotinyl-Met-oxazolone for this sequence: UAGUUAGCUAAUAGUCGCAAG [Fam3.1 aminoacylation ribozyme variant]
2.06

Look up self-aminoacylation with biotinyl-Met-oxazolone for this sequence: AUUACACUGGUCAUCGAGUGC [Fam2.1 aminoacylation ribozyme variant]
1.32

Look up self-aminoacylation with biotinyl-Met-oxazolone for this sequence: AUUGACCUAGGUCUUCGGGUG [Fam2.2 aminoacylation ribozyme variant]
4.29

Look up self-aminoacylation with biotinyl-Met-oxazolone for this sequence: CUACUUCAAGCAAUCGGUCUU [Fam1A.1 aminoacylation ribozyme variant]
0.87

Look up self-aminoacylation with biotinyl-Met-oxazolone for this sequence: AUUCACCUAGGUCAUUGUGUG [Fam2.2 aminoacylation ribozyme variant]
0.898

Look up self-aminoacylation with biotinyl-Met-oxazolone for this sequence: AUUCACCCAGGUCUUCGGGUG [Fam2.2 aminoacylation ribozyme variant]
5.3

Look up self-aminoacylation with biotinyl-Met-oxazolone for this sequence: AUCACCCUGGUCAUAGAGUGA [Fam2.1 aminoacylation ribozyme variant]
13.6

Look up self-aminoacylation with biotinyl-Met-oxazolone for this sequence: AUUCCCCUGGACAUCGAGUGA [Fam2.1 aminoacylation ribozyme variant]
6

Look up self-aminoacylation with biotinyl-Met-oxazolone for this sequence: AAGUUAUCUAAUAGUCGCAAG [Fam3.1 aminoacylation ribozyme variant]
1.32
